Molecular target: human cathepsin S (Homo sapiens, UniProt P25774)
Sequence (P25774 115-331): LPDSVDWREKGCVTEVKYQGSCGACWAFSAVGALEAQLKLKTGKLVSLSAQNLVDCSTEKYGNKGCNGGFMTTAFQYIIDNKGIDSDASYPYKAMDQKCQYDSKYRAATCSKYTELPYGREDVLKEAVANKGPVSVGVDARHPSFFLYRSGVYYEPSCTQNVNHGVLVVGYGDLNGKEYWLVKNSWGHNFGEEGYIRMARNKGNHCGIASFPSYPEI
Labelling: Ki reported below 1 nM becomes true (1); at or above becomes false (0).

> print(dat)
                                   compound        cat
1  CCN(CC)C(=O)N[C@@H](CC1(C)CCCC1)C(=O)N[C@]1(C(=O)C(=O)Nc2ccn(C)n2)C[C@@H](F)C1  false (0)
2  CC(=O)N[C@@H](CC1(C)CCCC1)C(=O)NC1(C(=O)C(=O)Nc2ccn(C)n2)CCC1   true (1)
3  CC(C)NC(=O)N[C@@H](CC1(F)CCCC1)C(=O)N[C@]1(C(=O)C(=O)Nc2ccn(C)n2)C[C@@H](F)C1  false (0)
4  COC1CC(NC(=O)[C@H](CC2(F)CCCC2)NC(=O)C(C)(C)C)(C(=O)C(=O)Nc2ccn(C)n2)C1 (some centres unmarked)  false (0)
5  COC1CC(NC(=O)[C@H](CC2(C)CCCC2)NC(C)=O)(C(=O)C(=O)NC2CC2)C1 (some centres unmarked)  false (0)
6  CCNC(=O)N[C@@H](CC1(F)CCCC1)C(=O)NC1(C(=O)C(=O)Nc2ccn(C)n2)CCC1   true (1)
7  COC1CC(NC(=O)[C@H](CC2(C)CCCC2)NC(=O)CCl)(C(=O)C(=O)NC2CC2)C1 (some centres unmarked)  false (0)

----------
Listed next: entries and their corresponding pKi.
Biological target: human cathepsin L (Homo sapiens, UniProt P07711)
Sequence (P07711 114-333): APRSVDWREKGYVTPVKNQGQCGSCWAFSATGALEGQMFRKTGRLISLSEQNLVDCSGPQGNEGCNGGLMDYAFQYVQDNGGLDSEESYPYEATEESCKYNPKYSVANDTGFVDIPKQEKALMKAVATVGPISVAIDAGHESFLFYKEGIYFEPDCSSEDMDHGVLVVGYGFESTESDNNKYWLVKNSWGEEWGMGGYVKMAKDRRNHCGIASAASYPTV
pKi: −log10 of the molar value.
MEASUREMENT_NAME: pKi

> print(dat)
                                   molecule  measured
1  CC(=O)N[C@@H](CC1(C)CCCC1)C(=O)NC1(C(=O)C(=O)Nc2ccn(C)n2)CCC1      5.28
2  CC(=O)N[C@@H](CC1(C)CCC1)C(=O)NC1(C(=O)C(=O)Nc2ccn(C)n2)CC(F)(F)C1      6.06
3  COC1CC(NC(=O)[C@H](CC2(C)CCCC2)NC(C)=O)(C(=O)C(=O)NC2CC2)C1 (stereo partly drawn)      4.48
4  CCC(=O)N[C@@H](CC1(C)CCCC1)C(=O)N[C@]1(C(=O)C(=O)Nc2ccn(C)n2)C[C@@H](F)C1      5.41
5  CC(=O)N[C@@H](CC(C)(C)C)C(=O)NC1(C(=O)C(=O)Nc2ccn(C)n2)CC(F)(F)C1      5.19
6  COC1CC(NC(=O)[C@H](CC2(F)CCCC2)NC(=O)C(C)(C)C)(C(=O)C(=O)Nc2ccn(C)n2)C1 (stereo partly drawn)      5.92
